Each record here notes measured clearance.
experiment: Clearance in rat at 3 mg/kg, iv; assay type: ADME, organism-based; parameters: dose 3 mg/kg, route intravenous; settings: in vivo
# number only, unit mL/min/kg dropped from output

| given_smiles | clearance / mL/min/kg |
| --- | --- |
| C[C@@H]1CN(c2ncccc2C(F)(F)F)CCN1C(=O)Nc1ccc(C(F)(F)F)cc1 | 39 |

## Input // returns reported clearance for input FC(F)(F)c1ccc(Nc2ncnc3cc(-c4ncccc4C(F)(F)F)ccc23)cc1
## Output 23

###

target: Transient receptor potential cation channel subfamily V member 1 (Homo sapiens, UniProt Q8NER1); experiment: Antagonist activity against capsaicin-activated human VR1 by FLIPR assay
Sequence (Q8NER1 whole entry): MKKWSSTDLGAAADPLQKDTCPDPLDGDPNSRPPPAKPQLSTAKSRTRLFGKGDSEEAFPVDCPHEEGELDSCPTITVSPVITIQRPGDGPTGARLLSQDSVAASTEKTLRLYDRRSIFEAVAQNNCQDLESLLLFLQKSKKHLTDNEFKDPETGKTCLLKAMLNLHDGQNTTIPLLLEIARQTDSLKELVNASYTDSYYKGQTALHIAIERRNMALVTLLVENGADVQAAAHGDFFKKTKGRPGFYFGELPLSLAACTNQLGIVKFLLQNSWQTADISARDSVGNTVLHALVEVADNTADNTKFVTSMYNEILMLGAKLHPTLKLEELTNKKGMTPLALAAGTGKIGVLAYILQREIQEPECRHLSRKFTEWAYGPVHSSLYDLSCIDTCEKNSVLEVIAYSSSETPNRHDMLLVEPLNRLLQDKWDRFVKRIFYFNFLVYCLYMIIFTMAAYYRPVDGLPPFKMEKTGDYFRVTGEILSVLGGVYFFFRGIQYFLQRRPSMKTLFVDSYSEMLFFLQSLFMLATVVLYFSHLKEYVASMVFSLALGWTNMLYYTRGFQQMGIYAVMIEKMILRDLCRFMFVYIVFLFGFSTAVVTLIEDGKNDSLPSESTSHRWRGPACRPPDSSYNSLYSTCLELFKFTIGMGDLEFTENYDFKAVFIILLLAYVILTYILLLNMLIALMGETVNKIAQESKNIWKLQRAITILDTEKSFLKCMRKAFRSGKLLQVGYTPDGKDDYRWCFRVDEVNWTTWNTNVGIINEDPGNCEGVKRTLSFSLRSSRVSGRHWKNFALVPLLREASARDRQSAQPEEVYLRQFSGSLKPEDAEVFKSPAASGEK
Labelling field: enter Fulfilled if recorded IC50 is less than 200 nM. Enter Not fulfilled if it equals or exceeds that cut-off.

## Input Lab note: IC50 threshold 200 nM. Does this compound come in strictly under it? CCCNc1cccnc1-c1ccc(C(=O)Nc2ccc(C(C)(C)C)cc2)cc1
## Output Fulfilled

## Input For CC(C)(C)c1ccc(NC(=O)c2ccc(-c3ncccc3N)cc2)cc1 , is the recorded IC50 below the cut-off of 200 nM?
## Output Fulfilled

## Input In plain terms, does CC(C)(C)c1ccc(NC(=O)c2ccc(-c3ncccc3C(=O)O)cc2)cc1 come in under 200 nM for IC50?
## Output Not fulfilled

## Input Hello, is IC50 of the following compound strictly smaller than 200 nM? CC(C)(C)c1ccc(NC(=O)c2ccc(-c3ncccc3Cl)cc2)cc1
## Output Fulfilled

## Input Strictly below 200 nM in IC50? CC(C)(C)c1ccc(NC(=O)c2ccc(-c3ncccc3NS(C)(=O)=O)cc2)cc1
## Output Fulfilled

## Input Answer whether the compound Cc1cccnc1-c1ccc(C(=O)Nc2ccc(OC(F)(F)F)cc2)cc1 has IC50 strictly less than 200 nM
## Output Not fulfilled

## Input Hello, is IC50 of the following compound strictly smaller than 200 nM? CCCCS(=O)(=O)Nc1cccnc1-c1ccc(C(=O)Nc2ccc(C(C)(C)C)cc2)cc1
## Output Fulfilled

###

target: Transient receptor potential cation channel subfamily V member 1 (Homo sapiens); test: Antagonist activity against capsaicin-activated human VR1 by FLIPR assay; format: functional
Recorded pIC50, one value per entry.
Scale: pIC50 equals -log10([C]), with [C] in mol/L.

Completed entries (count: 8):
| given_smiles | pIC50 |
| --- | --- |
| CC(C)(C)c1ccc(NC(=O)c2ccc(-c3ncccc3CO)cc2)cc1 | 6.77 |
| CC(C)(C)c1ccc(NC(=O)c2ccc(-c3ncccc3NO)cc2)cc1 | 7.31 |
| Cc1cccnc1-c1ccc(C(=O)Nc2ccc(C(F)(F)F)cc2)cc1 | 7.19 |
| O=C(Nc1ccc(C(F)(F)F)cc1)c1ccc(-c2ncccc2Cl)cc1 | 7.24 |
| O=C(Nc1ccc(C(F)(F)F)cc1)c1ccc(-c2ncccc2C(F)(F)F)cc1[N+](=O)[O-] | 6.41 |
| N#Cc1ccc(NC(=O)c2ccc(-c3ncccc3C(F)(F)F)cc2)cc1 | 6.38 |
| Cc1cccnc1-c1ccc(C(=O)Nc2ccc(Br)cc2)cc1 | 6.72 |
| CCS(=O)(=O)Nc1cccnc1-c1ccc(C(=O)Nc2ccc(C(C)(C)C)cc2)cc1 | 7.31 |

## Input Returns the measured pIC50 for the input molecule. Input: CC(C)(C)c1ccc(NC(=O)c2ccc(-c3ncccc3N(S(C)(=O)=O)S(C)(=O)=O)cc2)cc1
## Output 9.10

## Input Would you kindly share the measured pIC50 for CC(C)(C)c1ccc(NC(=O)c2ccc(-c3ncccc3C(F)(F)F)cc2)cc1 ?
## Output 8.22

## Input Could you share which pIC50 value was measured for CC(C)(C)c1ccc(NC(=O)c2ccc(-c3ncccc3[N+](=O)[O-])cc2)cc1 ?
## Output 8.30

## Input # query: pIC50 of entry Cc1cccnc1-c1ccc(C(=O)Nc2ccc(C(C)C)cc2)cc1
## Output 7.14

## Input Which pIC50 reading was recorded for the molecule CC(C)(C)c1ccc(NC(=O)c2ccc(-c3ncccc3CN3CCCC3)cc2)cc1 ?
## Output 5.82

## Input So what does the record say about pIC50 for Cc1cccnc1-c1ccc(C(=O)Nc2ccc(Cl)cc2)cc1 ?
## Output 5.82

## Input // returns reported pIC50 for input Cc1ccc(NC(=O)c2ccc(-c3ncccc3C)cc2)cc1
## Output 5.59

## Input Quick one: pIC50 for Cc1cccnc1-c1ccc(C(=O)Nc2ccc(C(F)(F)F)cc2)nc1 ?
## Output 5.75

## Input Which pIC50 value is on record for CC(C)(C)c1ccc(NC(=O)c2ccc(-c3ncccc3-c3ncc[nH]3)cc2)cc1 ?
## Output 5.44

Source: ChEMBL document CHEMBL1149508
